// provenance: patent US7026443

target: HLA-A*0301 (human); experiment: competition with 125I-labeled standard peptide for purified HLA-A*0301, gel filtration
observable: relative binding ratio (IC50 of standard peptide / IC50 of test peptide)

| binder | experimental-value |
| --- | --- |
| CMCCKCEARIK (modifications not checked) [HPV18 E7 63-73 peptide …] | 0.0014 |
| WLQPLADAK (modifications not checked) [HPV16 E1 peptide … (position 509, 9 amino acids)] | 0.0005 |
| TMLCMCCK (modifications not checked) [HPV18 E7 60-67 peptide TMLCMCCK] | 0.024 |
